# protein stability index per entry
B1: WEE1 (parent)
chain: INPFTPDSLLLHSSGQCRRRKRTY

- Variants of: B1
- experiment-summary: protein stability index of a GFP-peptide fusion (GPS, HEK-293T) (PSI 1-6); higher = more stable;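 note: lentivirally expressed fusions sorted by FACS into six bins by GFP to DsRed ratio, PSI derived from sequencing read proportions per bin multiplied by bin number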
- measurement-conditions: c terminus: a fixed tail appended
Number only, please.

Here's what some known entries look like.
L9P = 3.96
L10W = 3.43

Endpoint output: protein stability index of L10T . Value?
4.03

Consider the variant R22P and give its measured protein stability index.
3.23

Fill in: protein stability index of G15L is ___
3.56

Sample G15P — what was its protein stability index?
3.05

Which protein stability index is listed for L11C ?
3.75

Consider the variant shown here: R19N What is its recorded protein stability index?
3.38

protein stability index for R18K ?
3.26

Find the recorded protein stability index belonging to L11W and report it.
2.99

Recorded protein stability index for R22K , please?
3.59

Fill blank: measured protein stability index of the variant P3S is ____.
3.51

Entry H12L has what protein stability index?
2.86

Using the record for R19E , report its protein stability index.
3.8

Please look up its protein stability index: Q16F
2.65
